System: super sensitive Gram-negative Escherichia coli (E. coli) BAS849
Test: Antibacterial activity, microbroth dilution MIC, E. coli BAS849
Assay type: cell-based
Conditions: Escherichia coli; E. coli BAS849, microbroth dilution; read-out: MIC, BAS849
reported.metric: MIC

For the molecule "CCc1c(-c2ccccc2N2CCCCC2)[nH]c(=O)c(C(=O)O)c1O" , report MIC. 1 to 3.5 µg/mL

Provide only the value of recorded MIC for "CCc1c(-c2ccc(N(C)C)cc2OC)[nH]c(=O)c(C(=O)O)c1O" 3.5 to 12.5 µg/mL

Please give measured MIC of the following entry: CCc1c(-c2ccc(N3CCC(O)(CC)C3)cc2)[nH]c(=O)c(C(=O)O)c1O (centres unmarked) < 1 µg/mL

For "CCc1cc(C(=O)O)c(=O)[nH]c1-c1ccccc1N1CCCC1" , write its MIC. 12.5 to 150 µg/mL

Tell me measured MIC for "CCc1cc(C(=O)O)c(=O)[nH]c1-c1ccc(N2CCCC2)cc1F" please. < 1 µg/mL

Name the recorded MIC of the item "CCc1cc(C(=O)O)c(=O)[nH]c1-c1ccc(N2CCCCC2)cc1C" in your answer. 12.5 to 150 µg/mL

Quickly give me recorded MIC for "CCc1cc(C(=O)O)c(=O)[nH]c1-c1cnc(N(C)C)nc1" 12.5 to 150 µg/mL

Dear colleague, please send me the reported MIC for "CCc1cc(C(=O)O)c(=O)[nH]c1-c1ccc(N(C)C)s1" when you can. < 1 µg/mL

Specify reported MIC for the molecule shown: CCc1cc(C(=O)O)c(=O)[nH]c1-c1ccc(N2CCC(CNCc3ccccc3Cl)C2)cc1 (centres unmarked) < 1 µg/mL

Give the value of MIC reported for the following: "CCc1cc(C(=O)O)c(=O)[nH]c1-c1ccc(N2CC(NC(=O)OCc3ccccc3)C2)cc1" 3.5 to 12.5 µg/mL

# return recorded MIC for entry CCc1c(-c2ccc(N3CCC(C)(O)C3)cc2)[nH]c(=O)c(C(=O)O)c1O (centres unmarked) < 1 µg/mL

Supply reported MIC belonging to this molecule: CCc1c(-c2ccc(N3CCC(CN(C)Cc4ccccc4)C3)cc2)[nH]c(=O)c(C(=O)O)c1O (centres unmarked) 3.5 to 12.5 µg/mL

Check the records and state MIC for CCc1c(-c2cnc(N3CCC(N(C)C)C3)cn2)[nH]c(=O)c(C(=O)O)c1O (centres unmarked) 3.5 to 12.5 µg/mL

Quickly give me recorded MIC for CCc1cc(C(=O)O)c(=O)[nH]c1-c1ccc(N2CCC(C)(O)C2)cc1 (centres unmarked) < 1 µg/mL

Supply reported MIC belonging to this molecule: "CCc1cc(C(=O)O)c(=O)[nH]c1-c1ccc(N2C[C@H]3CC[C@@H](N(C)C)[C@H]3C2)cc1.Cl" < 1 µg/mL

Specify reported MIC for the molecule shown: "CCc1cc(C(=O)O)c(=O)[nH]c1-c1ccc(N2Cc3ccccc3C2)cc1" 3.5 to 12.5 µg/mL

Retrieve MIC measured for "CCc1cc(C(=O)O)c(=O)[nH]c1-c1ccc(N2CCN(C(=O)OC(C)(C)C)CC2)c(F)c1" and print it. 12.5 to 150 µg/mL

State its MIC: "CCc1cc(C(=O)O)c(=O)[nH]c1-c1ccc(N2CCCC2=O)cc1" 1 to 3.5 µg/mL

Answer with the recorded MIC of "CCc1c(-c2ccc(N3C[C@H]4CNC[C@H]4C3)cc2)[nH]c(=O)c(C(=O)O)c1O.Cl" only. 1 to 3.5 µg/mL

Return MIC for the following molecule: CCc1cc(C(=O)O)c(=O)[nH]c1-c1ccc(N2CC3CC3(N)C2)cc1.Cl (centres unmarked) < 1 µg/mL

Note down MIC recorded for "CCc1cc(C(=O)O)c(=O)[nH]c1-c1ccc(N2C[C@H](CN)[C@@H](C)C2)cc1" 12.5 to 150 µg/mL

For the molecule "CCc1c(-c2ccc(N3CCCC3)s2)[nH]c(=O)c(C(=O)O)c1O" , give its measured MIC value. < 1 µg/mL

Check the records and state MIC for "CCc1cc(C(=O)O)c(=O)[nH]c1-c1ccc(N2CCC(O)CC2)cc1" 1 to 3.5 µg/mL

Using known records, supply MIC for "CCc1c(-c2ccc(N3C[C@H]4CC[C@@H](N)[C@H]4C3)cc2)[nH]c(=O)c(C(=O)O)c1O.Cl" < 1 µg/mL

Indicate its recorded MIC; the molecule in question is CCc1cc(C(=O)O)c(=O)[nH]c1-c1ccc(N2CCC(N(C)C)C2)cc1F (centres unmarked) 1 to 3.5 µg/mL

Using known records, supply MIC for CCc1cc(C(=O)O)c(=O)[nH]c1-c1ccc(N2CCC(N=[N+]=[N-])C2)cc1 (centres unmarked) < 1 µg/mL

Please give the documented MIC of "CN(C)c1ccc(-c2[nH]c(=O)c(C(=O)O)c(O)c2CCO)cc1" < 1 µg/mL

Provide measured MIC value, entry: "CCc1cc(C(=O)O)c(=O)[nH]c1-c1ccc(N(C)C)cc1F" < 1 µg/mL

Specify MIC for "CCc1c(-c2ccc(OC)cc2C)[nH]c(=O)c(C(=O)O)c1O" and stop. 3.5 to 12.5 µg/mL

Assign MIC to the following record: CCc1c(-c2ccc(N3CCC(C)(CN)C3)cc2)[nH]c(=O)c(C(=O)O)c1O (centres unmarked) < 1 µg/mL

Read the entry "CCc1c(-c2ccc(N3C[C@H]4CCN[C@H]4C3)cc2)[nH]c(=O)c(C(=O)O)c1O.Cl" and write its reported MIC. < 1 µg/mL

Specify measured MIC for "CCc1c(-c2ccc(N3C[C@H]4CC[C@H](NC)[C@H]4C3)cc2)[nH]c(=O)c(C(=O)O)c1O.Cl" . 1 to 3.5 µg/mL

Look up MIC of CCc1cc(C(=O)O)c(=O)[nH]c1-c1ccc(N2CC3NCCOC3C2)cc1.Cl (centres unmarked) and report it. 1 to 3.5 µg/mL

Write down MIC measured for item "CCc1cc(C(=O)O)c(=O)[nH]c1-c1ccc(N2CC[C@H](F)C2)cc1" < 1 µg/mL

Look up and report measured MIC for this entry: CCc1cc(C(=O)O)c(=O)[nH]c1-c1ccc(N2CCC(CNCc3ccncc3)C2)cc1 (centres unmarked) < 1 µg/mL

----------
Please provide measured MIC for the entries that follow.
System: control Gram-negative E. coli 25922 strain
Assay: Antibacterial activity, microbroth dilution MIC, E. coli 25922
Assay type: cell-based, Escherichia coli
Conditions: Escherichia coli; E. coli 25922, microbroth dilution; read-out: MIC, 25922

Answer with the recorded MIC for the compound listed here: "CCc1cc(C(=O)O)c(=O)[nH]c1-c1ccc(OC)cc1N1CCCC1" 12.5 to 150 µg/mL

Give the value of MIC reported for the following: "CCc1c(-c2ccc(N3C[C@H]4CC[C@@H](N)[C@H]4C3)cc2)[nH]c(=O)c(C(=O)O)c1O.Cl" 1 to 3.5 µg/mL

Determine from records and report MIC for "CCc1cc(C(=O)O)c(=O)[nH]c1-c1ccc(NCCN(C)C)cc1" 12.5 to 150 µg/mL

Provide MIC value for the following compound: "CCc1c(-c2ccc(N3C[C@H](CN(Cc4ccccc4)Cc4ccccc4)[C@@H](C)C3)cc2)[nH]c(=O)c(C(=O)O)c1O" 12.5 to 150 µg/mL

Please report MIC for the following compound: "CCNc1ccc(-c2[nH]c(=O)c(C(=O)O)c(O)c2CC)cc1" 3.5 to 12.5 µg/mL

Look up MIC of "CCc1cc(C(=O)O)c(=O)[nH]c1-c1ccc(N2C[C@@H](N)[C@H](O)C2)cc1.Cl" and report it. 12.5 to 150 µg/mL

Dear colleague, please send me the reported MIC for "CCc1cc(C(=O)O)c(=O)[nH]c1-c1ccc(N2CCC(N(C)C)CC2)cc1" when you can. 12.5 to 150 µg/mL

Tell me MIC reported for CCc1cc(C(=O)O)c(=O)[nH]c1-c1ccc(N2C(=O)CCC2C)cc1 (centres unmarked) 12.5 to 150 µg/mL

// Input: "CCc1cc(C(=O)O)c(=O)[nH]c1-c1ccc(N2C[C@@H]3[C@@H](N)[C@@H]3C2)cc1F" . Output its MIC only. 1 to 3.5 µg/mL

Give a short answer stating reported MIC for CCc1cc(C(=O)O)c(=O)[nH]c1-c1ccc(N2CC3CC2CN3C(=O)OC(C)(C)C)cc1 (centres unmarked) . 12.5 to 150 µg/mL

Name the recorded MIC of the item "CCc1c(-c2cnc(N3CCCC3)cn2)[nH]c(=O)c(C(=O)O)c1O" in your answer. 12.5 to 150 µg/mL

Output MIC of "CCc1cc(C(=O)O)c(=O)[nH]c1-c1ccc(Cl)cc1" 12.5 to 150 µg/mL

Read off the recorded MIC for "CCc1c(-c2ccc(C3CCN(CC)CC3)cc2)[nH]c(=O)c(C(=O)O)c1O" 12.5 to 150 µg/mL

Give a short answer stating reported MIC for "CCCc1cc(C(=O)O)c(=O)[nH]c1-c1ccc(N(C)C)cc1" . 3.5 to 12.5 µg/mL

Provide measured MIC value, entry: CCc1cc(C(=O)O)c(=O)[nH]c1-c1ccc(N2CCC(CN(C)C)C2)cc1.O=C(O)C(F)(F)F (centres unmarked) 3.5 to 12.5 µg/mL

In one line, give reported MIC of the entry CCc1c(-c2ccc(N3CCC4(CCNC4)C3)cc2)[nH]c(=O)c(C(=O)O)c1O (centres unmarked) . 12.5 to 150 µg/mL

Specify reported MIC for the compound shown: CCc1cc(C(=O)O)c(=O)[nH]c1-c1ccc(N2CCC(CN3CCCC3)C2)cc1 (centres unmarked) 1 to 3.5 µg/mL

Values were extracted from patent US9650395B2.
